target: BCAT2 (Homo sapiens); assay: BCAT2 in vitro enzyme inhibition assay (hBCAT2, glutamate dehydrogenase/diaphorase/resazurin coupled fluorescence read); assay type: biochemical; conditions: hBCAT2, 1 h preincubation at 25° C., one hour reaction; average where tested multiple times
Sequence (O15382 28-392): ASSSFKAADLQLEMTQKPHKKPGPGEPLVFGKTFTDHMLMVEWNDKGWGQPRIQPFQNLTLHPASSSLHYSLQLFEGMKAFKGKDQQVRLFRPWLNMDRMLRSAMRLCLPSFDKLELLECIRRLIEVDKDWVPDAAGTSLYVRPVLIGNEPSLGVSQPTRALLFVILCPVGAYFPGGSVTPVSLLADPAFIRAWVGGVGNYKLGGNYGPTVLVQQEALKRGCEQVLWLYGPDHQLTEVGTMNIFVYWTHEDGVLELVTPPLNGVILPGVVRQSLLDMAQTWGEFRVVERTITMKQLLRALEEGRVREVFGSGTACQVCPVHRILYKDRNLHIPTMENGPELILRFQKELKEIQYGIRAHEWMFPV
measure: IC50

{"molecule": "CS(=O)(=O)c1ccc(Cl)cc1C(=O)N[C@H]1CCC[C@@H](n2c(-c3ccccc3F)nc3cnc(-c4nc[nH]n4)cc32)C1", "recordedMeasurement": "> 1000 nM"}
{"molecule": "CC(C)COc1ccc(Cl)cc1C(=O)N[C@H]1CCC[C@@H](n2c(-c3ccccc3C#N)nc3cnc(-c4nc[nH]n4)cc32)C1", "recordedMeasurement": "< 100 nM"}
{"molecule": "CCOc1ccc(Cl)cc1C(=O)N[C@H]1CCC[C@@H](n2c(-c3ccccc3F)nc3cnc(-c4nc[nH]n4)cc32)C1", "recordedMeasurement": "< 100 nM"}

Request: Suppose we examine the molecule O=C(N[C@@H]1C[C@@H](OC(F)F)C[C@H](n2c(-c3ccccc3F)nc3cnc(-c4ncn[nH]4)cc32)C1)c1cc(F)ccn1 (relative stereo) ; what IC50 value has been reported?
Response: < 100 nM

Request: And the next one, `COc1ccnc(C(=O)N[C@H]2CCC[C@@H](n3c(-c4ncccc4OC(F)F)nc4cnc(-c5nc[nH]n5)cc43)C2)c1` ?
Response: < 100 nM
